- ASSAY_INFO: Therapeutic Index, ratio of EC50 for human AC10 cells to EC50 for human MDA-MB-231 cells
- Assay type: toxicity
- ASSAY_SETUP: AC10 cells versus MDA-MB-231 cells, read-out: Ratio EC50
OBSERVED_PROPERTY: selectivity ratio

[
  {
    "COMPOUND_STRING": "COc1ccc(CN2CCC(Nc3nc(Nc4ccc(NC(=O)CCCCCCC(=O)NO)cc4)nc4cc(OC)c(OC)cc34)CC2)cc1",
    "OBSERVED_PROPERTY": "selectivity ratio",
    "OBSERVED_MEASUREMENT": 15
  }
]

* * *

- ASSAY_INFO: Inhibition of human MLL1 complex using core histone as substrate incubated for 1 hr in presence of [3H]-SAM by filter binding method

[
  {
    "COMPOUND_STRING": "COc1ccc(CN2CCC(Nc3nc(Nc4ccc(NC(=O)CCCCCCC(=O)NO)cc4)nc4cc(OC)c(OC)cc34)CC2)cc1",
    "EC50 [µM]": 158
  }
]

* * *

Target sequence: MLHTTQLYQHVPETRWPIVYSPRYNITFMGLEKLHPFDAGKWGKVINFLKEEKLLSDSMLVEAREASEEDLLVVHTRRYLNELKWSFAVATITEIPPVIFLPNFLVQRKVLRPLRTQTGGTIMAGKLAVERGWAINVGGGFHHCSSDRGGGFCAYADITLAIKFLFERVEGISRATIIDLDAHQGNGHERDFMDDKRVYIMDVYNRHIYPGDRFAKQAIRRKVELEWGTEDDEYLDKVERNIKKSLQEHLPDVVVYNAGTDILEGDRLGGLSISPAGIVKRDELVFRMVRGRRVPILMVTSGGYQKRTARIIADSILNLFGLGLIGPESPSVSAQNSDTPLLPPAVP
pIC50: −log10 of the molar value.

[
  {
    "COMPOUND_STRING": "COc1ccc(CN2CCC(Nc3nc(Nc4ccc(NC(=O)CCCCCCC(=O)NO)cc4)nc4cc(OC)c(OC)cc34)CC2)cc1",
    "pIC50": 5.74
  }
]

* * *

- ASSAY_INFO: Effective permeability of the compound at pH 7.4 measured after 6 hrs by PAMPA assay
- Type: ADME
- ASSAY_SETUP: read-out: Peff

[
  {
    "COMPOUND_STRING": "COc1ccc(CN2CCC(Nc3nc(Nc4ccc(NC(=O)CCCCCCC(=O)NO)cc4)nc4cc(OC)c(OC)cc34)CC2)cc1",
    "Papp at 6 h / ×10⁻⁶ cm/s": 21.8
  }
]

* * *

- ASSAY_INFO: Intrinsic clearance in female rat liver microsomes at 3 uM preincubated for 5 mins followed by NADPH addition and measured up to 45 mins by LC-MS/MS analysis
- Assay type: ADME, Microsome
OBSERVED_PROPERTY: microsomal CLint at 3 µM (µL/min/mg)

[
  {
    "COMPOUND_STRING": "COc1ccc(CN2CCC(Nc3nc(Nc4ccc(NC(=O)CCCCCCC(=O)NO)cc4)nc4cc(OC)c(OC)cc34)CC2)cc1",
    "OBSERVED_PROPERTY": "microsomal CLint at 3 µM",
    "OBSERVED_MEASUREMENT": 22.3
  }
]

* * *

- ASSAY_INFO: Therapeutic Index, ratio of EC50 for mouse TAMH cells to EC50 for human MDA-MB-231 cells
- Assay type: toxicity
- ASSAY_SETUP: TAMH cells versus MDA-MB-231 cells, read-out: Ratio EC50
OBSERVED_PROPERTY: selectivity ratio

[
  {
    "COMPOUND_STRING": "COc1ccc(CN2CCC(Nc3nc(Nc4ccc(NC(=O)CCCCCCC(=O)NO)cc4)nc4cc(OC)c(OC)cc34)CC2)cc1",
    "OBSERVED_MEASUREMENT": 5
  }
]

* * *

- ASSAY_INFO: Kinetic solubility in pH 7.4 universal buffer measured after 3 hrs by UV spectroscopic analysis
- Type: physicochemical
- ASSAY_SETUP: read-out: Kinetic_solubility
OBSERVED_PROPERTY: solubility kinetic at 3 h (µM)

[
  {
    "COMPOUND_STRING": "COc1ccc(CN2CCC(Nc3nc(Nc4ccc(NC(=O)CCCCCCC(=O)NO)cc4)nc4cc(OC)c(OC)cc34)CC2)cc1",
    "OBSERVED_PROPERTY": "solubility kinetic at 3 h",
    "UNIT_OF_MEASURE": "µM",
    "OBSERVED_MEASUREMENT": 4.6
  }
]

* * *

- EXPERIMENTAL_TARGET: DNA (cytosine-5)-methyltransferase 1 (Homo sapiens)
- Sequence (P26358 whole entry): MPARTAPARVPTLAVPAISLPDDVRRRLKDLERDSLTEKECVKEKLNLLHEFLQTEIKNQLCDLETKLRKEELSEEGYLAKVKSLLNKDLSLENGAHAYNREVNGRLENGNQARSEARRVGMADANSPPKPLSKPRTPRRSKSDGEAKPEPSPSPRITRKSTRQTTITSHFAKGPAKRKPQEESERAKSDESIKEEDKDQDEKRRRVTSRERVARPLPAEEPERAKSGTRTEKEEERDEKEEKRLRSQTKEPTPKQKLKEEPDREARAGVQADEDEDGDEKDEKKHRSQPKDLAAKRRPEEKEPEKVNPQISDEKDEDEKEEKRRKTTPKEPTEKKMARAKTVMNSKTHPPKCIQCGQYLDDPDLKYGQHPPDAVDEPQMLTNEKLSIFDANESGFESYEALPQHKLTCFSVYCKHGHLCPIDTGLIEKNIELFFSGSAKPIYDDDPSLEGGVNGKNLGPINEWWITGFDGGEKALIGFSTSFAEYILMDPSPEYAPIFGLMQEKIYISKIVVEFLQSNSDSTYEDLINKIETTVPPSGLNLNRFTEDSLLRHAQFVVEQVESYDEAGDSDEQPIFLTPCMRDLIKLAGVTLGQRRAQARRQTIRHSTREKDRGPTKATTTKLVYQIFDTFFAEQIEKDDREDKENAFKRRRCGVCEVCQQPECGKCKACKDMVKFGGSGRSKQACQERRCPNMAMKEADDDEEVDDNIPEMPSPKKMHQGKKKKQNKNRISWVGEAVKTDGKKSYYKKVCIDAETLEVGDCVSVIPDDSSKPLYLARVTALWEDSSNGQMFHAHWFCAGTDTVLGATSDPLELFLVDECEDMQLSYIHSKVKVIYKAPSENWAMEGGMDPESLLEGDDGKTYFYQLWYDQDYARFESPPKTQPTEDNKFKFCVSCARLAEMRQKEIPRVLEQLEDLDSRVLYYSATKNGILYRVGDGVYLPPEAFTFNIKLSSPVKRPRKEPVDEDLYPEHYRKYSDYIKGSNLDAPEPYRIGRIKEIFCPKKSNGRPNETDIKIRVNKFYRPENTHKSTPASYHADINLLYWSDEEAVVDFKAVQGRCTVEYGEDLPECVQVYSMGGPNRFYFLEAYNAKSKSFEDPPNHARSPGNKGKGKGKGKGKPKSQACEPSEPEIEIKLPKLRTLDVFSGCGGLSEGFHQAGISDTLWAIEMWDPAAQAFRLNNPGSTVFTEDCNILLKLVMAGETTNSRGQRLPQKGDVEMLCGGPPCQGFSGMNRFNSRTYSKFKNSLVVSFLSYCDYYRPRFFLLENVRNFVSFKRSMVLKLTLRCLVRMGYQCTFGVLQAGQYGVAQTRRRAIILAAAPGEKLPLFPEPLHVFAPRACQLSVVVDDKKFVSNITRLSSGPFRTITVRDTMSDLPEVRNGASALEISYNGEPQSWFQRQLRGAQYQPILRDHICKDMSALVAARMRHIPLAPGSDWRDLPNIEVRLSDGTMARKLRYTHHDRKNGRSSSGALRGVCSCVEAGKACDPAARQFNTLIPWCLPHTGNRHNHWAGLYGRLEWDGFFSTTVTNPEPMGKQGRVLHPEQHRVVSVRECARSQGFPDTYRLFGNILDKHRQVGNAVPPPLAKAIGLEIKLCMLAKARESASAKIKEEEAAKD
pIC50: −log10 of the molar value.
OBSERVED_PROPERTY: pIC50

[
  {
    "COMPOUND_STRING": "COc1ccc(CN2CCC(Nc3nc(Nc4ccc(NC(=O)CCCCCCC(=O)NO)cc4)nc4cc(OC)c(OC)cc34)CC2)cc1",
    "OBSERVED_PROPERTY": "pIC50",
    "OBSERVED_MEASUREMENT": 4.85
  }
]

* * *

- ASSAY_INFO: Half life in mouse liver microsomes at 3 uM preincubated for 5 mins followed by NADPH addition and measured up to 45 mins by LC-MS/MS analysis
- Assay type: ADME, Microsome
OBSERVED_PROPERTY: half-life at 3 µM (min)

[
  {
    "COMPOUND_STRING": "COc1ccc(CN2CCC(Nc3nc(Nc4ccc(NC(=O)CCCCCCC(=O)NO)cc4)nc4cc(OC)c(OC)cc34)CC2)cc1",
    "OBSERVED_MEASUREMENT": 26.6
  }
]

* * *

- Tested on: OPM-2
- ASSAY_INFO: Antiproliferative activity against human OPM2 cells incubated for 48 hrs by CellTiter-Glo luminescent cell viability assay
- Format: functional, cell-based
- ASSAY_SETUP: OPM-2, 48 h
pEC50: −log10 of the molar value.
Listing of recorded pEC50 by entry.

[
  {
    "COMPOUND_STRING": "O=C(CCCCCCC(=O)Nc1ccccc1)NO",
    "pEC50": 5.54
  },
  {
    "COMPOUND_STRING": "COc1ccc(CN2CCC(Nc3nc(Nc4ccc(NC(=O)CCCCCCC(=O)NO)cc4)nc4cc(OC)c(OC)cc34)CC2)cc1",
    "pEC50": 5.10
  }
]

* * *

- ASSAY_INFO: Half life in male rat liver microsomes at 3 uM preincubated for 5 mins followed by NADPH addition and measured up to 45 mins by LC-MS/MS analysis
- Format: ADME, Microsome

[
  {
    "COMPOUND_STRING": "COc1ccc(CN2CCC(Nc3nc(Nc4ccc(NC(=O)CCCCCCC(=O)NO)cc4)nc4cc(OC)c(OC)cc34)CC2)cc1",
    "half-life at 3 µM (h)": 2.38
  }
]
